- Test system: DLD-1
- ASSAY EXPLANATION: NCI tumour cell line growth inhibition, 48 h
Activity calls are given as the source filed them. Cut-off read from the data, not from the text of the source: active = GI50 up to about 1.1 µM and inactive = higher.
Listing: GI50 of selected compounds

* O=C(CCN(C(=O)O)S(=O)(=O)c1ccc(NC(=O)c2ccccc2)cc1)Nc1ccccc1 | > 79.8 µM (inactive)
* O=C1CCC2(c3ccccc3)Nc3ncccc3N12 (stereo unspecified) | > 100 µM (inactive)

Task: Returns the measured GI50 for the input compound. Input: COC(=O)C1C2CC3C(OC(=O)C31)C2OC(=O)[C@](OC)(c1ccccc1)C(F)(F)F (stereo partly specified)
Output: > 100 µM (inactive)

Task: Returns the measured GI50 for the input compound. Input: `Cc1cc(/N=N/c2ccc(/N=N/c3c(O)c(S(=O)(=O)O)cc4cc(S(=O)(=O)O)ccc34)cc2C)ccc1/N=N/c1ccc2cc(S(=O)(=O)O)cc(S(=O)(=O)O)c2c1`
Output: > 100 µM (inactive)

Task: Returns the measured GI50 for the input compound. Input: Cc1cc(Cl)ccc1NC(=O)CC1SC(Nc2ccccc2Cl)=NC1=O (stereo unspecified)
Output: 28.1 µM (inactive)

Task: Returns the measured GI50 for the input compound. Input: `COc1ccc(S(=O)(=O)N[C@H](C(=O)O)c2ccccc2)cc1`
Output: > 100 µM (inactive)

Task: Returns the measured GI50 for the input compound. Input: `COC(=O)C(=O)CC(=O)CCn1[nH]c(=O)c(Cl)c(Cl)c1=O`
Output: > 100 µM (inactive)

Task: Returns the measured GI50 for the input compound. Input: `C/C(=N\NS(=O)(=O)c1ccc(C)cc1)c1c(O)cc(C)oc1=O`
Output: > 100 µM (inactive)

Task: Returns the measured GI50 for the input compound. Input: `N#CCN1C(=O)c2cccc3cc([N+](=O)[O-])cc(c23)C1=O`
Output: 32 µM (inactive)

Task: Returns the measured GI50 for the input compound. Input: `NC(=O)c1ncn(CCN2CCN(C(=O)NCCCCCCNC(=O)N3CCN(CCn4cnc(C(N)=O)c4N)CC3)CC2)c1N`
Output: > 100 µM (inactive)

Task: Returns the measured GI50 for the input compound. Input: CC1OC(OP(=O)(OCc2ccccc2)OCc2ccccc2)C(OC(=O)c2ccccc2)C(OC(=O)c2ccccc2)C1I (stereo unspecified)
Output: 50 µM (inactive)
